biological target: hGLP-1R (Homo sapiens, UniProt P43220); assay: Functional cAMP activation in the presence of 0.1% casein (no HSA); type: cell-based; settings: read-out: Relative cAMP EC50, hGLP-1R;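 further: intracellular cAMP rise after 30 min at 37 °C read by HTRF, normalized between buffer only (0%) and maximal control ligand (100%), four-parameter variable-slope fit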
Sequence (P43220 24-463): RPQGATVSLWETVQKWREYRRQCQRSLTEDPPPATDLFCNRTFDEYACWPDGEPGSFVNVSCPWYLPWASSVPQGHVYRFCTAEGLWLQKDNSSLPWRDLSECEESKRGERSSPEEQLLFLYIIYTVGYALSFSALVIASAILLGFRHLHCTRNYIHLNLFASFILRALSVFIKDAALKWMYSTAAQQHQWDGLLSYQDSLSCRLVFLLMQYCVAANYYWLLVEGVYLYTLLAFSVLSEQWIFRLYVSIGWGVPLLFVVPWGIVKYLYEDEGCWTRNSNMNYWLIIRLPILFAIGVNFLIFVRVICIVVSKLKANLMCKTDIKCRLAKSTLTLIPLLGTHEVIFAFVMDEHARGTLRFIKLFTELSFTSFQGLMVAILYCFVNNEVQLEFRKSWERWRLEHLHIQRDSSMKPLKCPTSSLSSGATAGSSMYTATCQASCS
Starred links: 1 amine or outer side, 2 acyl side, 3 side chain; linkers in the order of their positions; H or OH if unused. Non-standard residues stand in square brackets, D forms with d. Groups on a side chain read outwards from the residue. No end group written: not given here. *: point of attachment. C18 diacid = O=C(O)CCCCCCCCCCCCCCCCC(=O)*; αMePhe(2-F) = C[C@](N)(Cc1ccccc1F)C(=O)O; γGlu = O=C(O)[C@H](CCC(=O)[*:2])N[*:1]; αMe4Pal = C[C@](N)(Cc1ccncc1)C(=O)O; αMeY = C[C@](N)(Cc1ccc(O)cc1)C(=O)O; 4Pal = N[C@@H](Cc1ccncc1)C(=O)O; αMeL = CC(C)C[C@](C)(N)C(=O)O; αMeS = C[C@](N)(CO)C(=O)O; Orn = NCCC[C@H](N)C(=O)O; AEEA = NCCOCCOCC(=O)O; Aib = CC(C)(N)C(=O)O

>  <substance>
H-Y[Aib]QGT[αMePhe(2-F)]TSD[4Pal][αMeS]I[αMeL]LD[Orn]K([AEEA-γGlu-C18 diacid])AQ[αMe4Pal]EFI[dE][αMeY]LIEGGPSSGAPPPSGSEE-NH2 [Example 713]

>  <EC50 (nM)>
0.331

$$$$
>  <substance>
Y[Aib]QGT[αMePhe(2-F)]TSD[4Pal][αMeS]I[αMeL]LD[Orn]K([AEEA-γGlu-C18 diacid])AQ[Aib][Orn]FI[dE]YLIEGGPSSGEPPPSEG-NH2 [Example 463]

>  <EC50 (nM)>
0.362

$$$$
>  <substance>
H-Y[Aib]QGT[αMePhe(2-F)]TSD[4Pal]SI[αMeL]LD[Orn]K([AEEA-γGlu-C18 diacid])AQ[αMe4Pal][Orn]FI[dE][αMeY]LIEGGPSSGEPPPSGS-NH2 [Example 706]

>  <EC50 (nM)>
0.19

$$$$
>  <substance>
H-Y[Aib]QGT[αMePhe(2-F)]TSD[4Pal]SI[αMeL]LD[Orn]K([γGlu-γGlu-C18 diacid])AQ[αMe4Pal][Orn]FI[dE]YLIEGGPSSGEPPPEGT-NH2 [Example 541]

>  <EC50 (nM)>
0.74

$$$$
>  <substance>
H-Y[Aib]QGT[αMePhe(2-F)]TSD[4Pal]SILLD[Orn]K([γGlu-γGlu-C18 diacid])AQ[αMe4Pal][Orn]FI[dE]YLIEGGPSSGEPPPSGTEE-NH2 [Example 584]

>  <EC50 (nM)>
1

$$$$
>  <substance>
H-Y[Aib]QGT[αMePhe(2-F)]TSD[4Pal]SI[αMeL]LD[Orn]K([AEEA-γGlu-C18 diacid])AQ[αMe4Pal][Orn]FIE[αMeY]LIEGGPSSGEPPPEGT-NH2 [Example 505]

>  <EC50 (nM)>
0.205

$$$$
>  <substance>
H-Y[Aib]QGT[αMePhe(2-F)]TSD[4Pal][αMeS]I[αMeL]LD[Orn]K([AEEA-γGlu-C18 diacid])AQ[Aib][Orn]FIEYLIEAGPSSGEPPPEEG-NH2 [Example 484]

>  <EC50 (nM)>
0.201

$$$$
>  <substance>
H-Y[Aib]QGT[αMePhe(2-F)]TSD[4Pal]SI[αMeL]LDKK([γGlu-γGlu-C18 diacid])AQ[Aib]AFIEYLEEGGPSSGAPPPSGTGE-NH2 [Example 622]

>  <EC50 (nM)>
0.776

$$$$
>  <substance>
H-Y[Aib]QGT[αMePhe(2-F)]TSD[4Pal][αMeS]I[αMeL]LD[Orn]K([Glu-γGlu-C18 diacid])AQ[Aib][Orn]FI[dE][αMeY]LSEGGPSSGEPPPSGTE-NH2 [Example 563]

>  <EC50 (nM)>
1.01

$$$$
>  <substance>
H-Y[Aib]Q[dA]T[αMePhe(2-F)]TSD[4Pal][αMeS]I[αMeL]LD[Orn]K([AEEA-γGlu-C18 diacid])AQ[αMe4Pal]EFI[dE][αMeY]LIEGGPSSGEPPPSGTGE-NH2 [Example 766]

>  <EC50 (nM)>
0.273

$$$$
>  <substance>
Y[Aib]QGT[αMePhe(2-F)]TSD[4Pal]SI[αMeL]LD[Orn]K([AEEA-γGlu-C18 diacid])AQ[αMe4Pal][Orn]FI[dE][αMeY]LIEGGPSSGDPPPEAE-NH2 [Example 728]

>  <EC50 (nM)>
0.277

$$$$
>  <substance>
H-Y[Aib]QGT[αMePhe(2-F)]TSD[4Pal][αMeS]I[αMeL]LD[Orn]K([γGlu-γGlu-C18 diacid])AQ[αMe4Pal]EFI[dE][αMeY]LIEGGPSSGAPPPEGGGE-NH2 [Example 761]

>  <EC50 (nM)>
0.226

$$$$
>  <substance>
H-Y[Aib]QGT[αMePhe(2-F)]TSD[4Pal][αMeS]I[αMeL]LD[Orn]K([γGlu-γGlu-C18 diacid])AQ[Aib][Orn]FI[dE][αMeY]LQEGGPSSGEPPPSGTEE-NH2 [Example 572]

>  <EC50 (nM)>
0.366

$$$$
>  <substance>
Y[Aib]QGT[αMePhe(2-F)]TSD[4Pal][αMeS]I[αMeL]LD[Orn]K([AEEA-γGlu-C18 diacid])YQ[αMe4Pal]EFI[dE][αMeY]LVEGGPSSGAPPPSGS-NH2 [Example 767]

>  <EC50 (nM)>
0.299

$$$$
>  <substance>
H-Y[Aib]QGT[αMePhe(2-F)]TSD[4Pal][αMeS]I[αMeL]LD[Orn]K([γGlu-γGlu-C18 diacid])AQ[Aib][Orn]FI[dE][αMeY]LAEGGPSSGEPPPSGEEE-NH2 [Example 592]

>  <EC50 (nM)>
1.12

$$$$
>  <substance>
H-Y[Aib]QGT[αMePhe(2-F)]TSD[4Pal]SI[αMeL]LD[Orn]K([γGlu-γGlu-C18 diacid])AQ[αMe4Pal][Orn]FI[dE][αMeY]LIEGGPSSGEPPPEAE-NH2 [Example 684]

>  <EC50 (nM)>
0.28

$$$$
>  <substance>
H-Y[Aib]QGT[αMePhe(2-F)]TSD[4Pal][αMeS]I[αMeL]LD[Orn]K([γGlu-γGlu-C18 diacid])AQ[Aib][Orn]FI[dE]YLLEGGPSSGEPPPSGTE-NH2 [Example 532]

>  <EC50 (nM)>
0.577

$$$$
>  <substance>
Y[Aib]QGT[αMePhe(2-F)]TSD[4Pal]SI[αMeL]LD[Orn]K([AEEA-γGlu-C18 diacid])AQ[αMe4Pal][Orn]FI[dE][αMeY]LIEGGPSSGDPPPESE-NH2 [Example 729]

>  <EC50 (nM)>
0.288

$$$$
>  <substance>
H-Y[Aib]QGT[αMePhe(2-F)]TSD[4Pal][αMeS]I[αMeL]LD[Orn]K([γGlu-γGlu-C18 diacid])AQ[αMe4Pal]EFI[dE][αMeY]LIEGGPSSGEPPPSGSE-NH2 [Example 716]

>  <EC50 (nM)>
0.321

$$$$
